meta.source: patent US20230094952A1

Tested on: mouse long-term hematopoietic stem cells
Assay: Reproducibility and concentration dependence test: 1-week culture of sorted Hoxb5-tri-mCherry mouse long-term hematopoietic stem cells, flow cytometry
Format: cell-based
Conditions: Table 4; compound 0.3 μM; day 7 of culture; n=2
Measured endpoint: mCherry-positive rate (%)
Numeric answer only, unit % assumed.

CO[C@H]1O[C@@H]2O[C@@]3(C)CC[C@H]4[C@H](C)CC[C@@H]([C@H]1C)[C@@]24OO3 [Example 1-30, artemether, reference compound] :: 100.0
C[C@H]1[C@H](N(C)C)O[C@@H]2O[C@@]3(C)CC[C@H]4[C@H](C)CC[C@@H]1[C@@]24OO3 :: 15.2

Turning now to a further record.
mCherry-positive rate reported for this compound "C[C@H]1[C@H](N2CCOCC2)O[C@@H]2O[C@@]3(C)CC[C@H]4[C@H](C)CC[C@@H]1[C@@]24OO3" : 2.9

###

Test system: mouse long-term hematopoietic stem cells
Assay: Reproducibility and concentration dependence test: 1-week culture of sorted Hoxb5-tri-mCherry mouse long-term hematopoietic stem cells, flow cytometry
Type: cell-based
Conditions: Table 4; compound 1 μM; day 7 of culture; n=2
Lab note: anything with mCherry-positive rate below 20% is marked t; values at 20% or higher are marked f.

C[C@H]1[C@H](N2CCOCC2)O[C@@H]2O[C@@]3(C)CC[C@H]4[C@H](C)CC[C@@H]1[C@@]24OO3 [Example 1-13] :: t

input: Would you kindly verify if mCherry-positive rate of CC(=O)OCCO[C@@H]1O[C@@H]2O[C@@]3(C)CC[C@H]4[C@H](C)CC[C@@H]([C@H]1C)[C@@]24OO3 [Example 1-27] is strictly less than 20%?
output: f

input: Quick check: mCherry-positive rate of CS[C@@H]1O[C@@H]2O[C@@]3(C)CC[C@H]4[C@H](C)CC[C@@H]([C@H]1C)[C@@]24OO3 [Example 1-3] under 20%?
output: f

input: Report whether reported mCherry-positive rate is lower than 20% (strictly) for C[C@H]1[C@H](NS(C)(=O)=O)O[C@@H]2O[C@@]3(C)CC[C@H]4[C@H](C)CC[C@@H]1[C@@]24OO3 [Example 1-11]
output: f

input: mCherry-positive rate strictly < 20% for this compound? CO[C@@H]1O[C@@H]2O[C@@]3(C)CC[C@H]4[C@H](C)CC[C@@H]([C@H]1C)[C@@]24OO3 [Example 1-35]
output: f

input: # TODO verify mCherry-positive rate < 20% strictly for this compound: C[C@H]1[C@H](S(C)(=O)=O)O[C@@H]2O[C@@]3(C)CC[C@H]4[C@H](C)CC[C@@H]1[C@@]24OO3 [Example 1-5]
output: t

input: Hello, I'm reviewing records and need to know if mCherry-positive rate of C[C@H]1[C@H](C(N)=O)O[C@@H]2O[C@@]3(C)CC[C@H]4[C@H](C)CC[C@@H]1[C@@]24OO3 [Example 1-16] is below 20%. Could you check?
output: f

input: Does this compound meet the criterion mCherry-positive rate < 20%? C[C@@H]1CC[C@H]2[C@@H](C)C(=O)O[C@@H]3O[C@@]4(C)CC[C@@H]1[C@]32O4 [Example 1-34]
output: t

input: Is mCherry-positive rate of C[C@H]1[C@H](n2cc(-c3ccccc3)nn2)O[C@@H]2O[C@@]3(C)CC[C@H]4[C@H](C)CC[C@@H]1[C@@]24OO3 [Example 1-9] strictly below 20%?
output: t

input: Quick check: does C[C@H]1[C@@H](O)O[C@@H]2O[C@@]3(C)CC[C@H]4[C@H](C)CC[C@@H]1[C@@]24OO3 [Example 1-29, artenimol, reference compound] have mCherry-positive rate under 20%?
output: t
